Recorded growth inhibition by entry
assay: NCI Yeast Anticancer Drug Screen. Data for the sgs1 mgt1 strain (AID 161);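 also: 0% = growth of cultures given vehicle only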; settings: S. cerevisiae sgs1 mgt1 strain, at 50.0 µM, active compounds read high
The panel holds about 79,000 compounds, 15% with a hit somewhere; the sample as a whole holds those more often.
Answer format: numeric, % implied, no suffix.

Query COc1cc(C(=O)C[n+]2ccccc2)ccc1O yields growth inhibition of 84.5

What the record says about CCN(S(C)(=O)=O)S(C)(=O)=O : growth inhibition is -4.65

The compound listed as c1ccc(OCCCCN2CCNCC2)cc1 shows growth inhibition equal to 14.3

Reported growth inhibition ( CC(C)OCCCNc1ncnc2c1cnn2-c1ccc(Cl)cc1 ) = 3.55

# compound C[n+]1ccccc1/C=C/c1cccc([N+](=O)[O-])c1 ; its growth inhibition = -1.3

Reference for the values: PubChem BioAssay (NCI)
